Assay: Induction of neurite outgrowth in rat hippocampal neurons assessed as neurite total length at 62.5 ng/ml after 48 hrs relative to control
Assay type: functional, Hippocampal neurone
Entries and their Activity values follow.
ENDPOINT: Activity (%)

[[record]]
molecule = "CCC(C)C1=N[C@@H](CCCCN2C[C@@H](CC(C)C)N(CC3CCC(C)CC3)C2=S)CN1 (stereo not given in full)"
readout_value = 253.6

[[record]]
molecule = "CC(C)CCCCN1C(=S)N(CCCC[C@H]2CNC(CCCCc3ccccc3)=N2)C[C@H]1c1ccccc1"
readout_value = 172.4

[[record]]
molecule = "CCC(C)CC1=N[C@@H](CCCCN2C[C@@H](C)N(CCC3CCC(C)CC3)C2=S)CN1 (stereo not given in full)"
readout_value = 150

[[record]]
molecule = "CCC(C)CC1=N[C@@H](CCCCN2C[C@@H](c3ccccc3)N(CCCCC(C)C)C2=S)CN1 (stereo not given in full)"
readout_value = 252.8

[[record]]
molecule = "CC(C)CCCCN1C(=S)N(CCCC[C@H]2CNC(CCCCc3ccccc3)=N2)C[C@H]1C"
readout_value = 124.2


These entries and their values trace back to ChEMBL document CHEMBL4266015.
